Measured kd var/kd wt, listed per entry for reference.
Assay system: T1, human TGFβ2 (human, UniProt P61812 303-414)
T1 construct: also called TGFβ2 homodimer
T1 sequence: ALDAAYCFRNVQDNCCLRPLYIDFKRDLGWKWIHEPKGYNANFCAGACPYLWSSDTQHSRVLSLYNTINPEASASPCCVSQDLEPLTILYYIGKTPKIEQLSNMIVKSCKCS
Procedure summary: Biacore off-rate vs wt GC1008, 50 nM
Respond numerically, and do not add a unit to the figure.

# Binder, kd var/kd wt
records = [
    ("S30L (antibody, V domains shown, GC1008 IgG4 variant) VH: QVQLVQSGAEVKKPGSSVKVSCKASGYTFLSNVISWVRQAPGQGLEWMGGVIPIVDIANYAQRFKGRVTITADESTSTTYMELSSLRSEDTAVYYCASTLGLVLDAMDYWGQGTLVTVSS VL: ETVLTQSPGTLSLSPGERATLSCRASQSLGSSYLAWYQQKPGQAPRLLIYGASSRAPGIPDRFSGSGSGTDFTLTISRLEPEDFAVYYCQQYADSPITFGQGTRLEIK", 1),
]

What kd var/kd wt value was documented for this binder, I52T (antibody, V domains shown, GC1008 IgG4 variant) VH: QVQLVQSGAEVKKPGSSVKVSCKASGYTFSSNVISWVRQAPGQGLEWMGGVTPIVDIANYAQRFKGRVTITADESTSTTYMELSSLRSEDTAVYYCASTLGLVLDAMDYWGQGTLVTVSS VL: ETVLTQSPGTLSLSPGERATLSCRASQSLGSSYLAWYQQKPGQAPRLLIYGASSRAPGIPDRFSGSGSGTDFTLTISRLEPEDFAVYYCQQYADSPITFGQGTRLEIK ?
1.9

What kd var/kd wt value was documented for this binder, D56T (antibody, V domains shown, GC1008 IgG4 variant) VH: QVQLVQSGAEVKKPGSSVKVSCKASGYTFSSNVISWVRQAPGQGLEWMGGVIPIVTIANYAQRFKGRVTITADESTSTTYMELSSLRSEDTAVYYCASTLGLVLDAMDYWGQGTLVTVSS VL: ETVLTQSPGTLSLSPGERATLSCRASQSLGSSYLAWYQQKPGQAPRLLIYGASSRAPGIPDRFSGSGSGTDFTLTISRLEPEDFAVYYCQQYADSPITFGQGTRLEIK ?
1.5

What kd var/kd wt value was documented for this binder, V55I (antibody, V domains shown, GC1008 IgG4 variant) VH: QVQLVQSGAEVKKPGSSVKVSCKASGYTFSSNVISWVRQAPGQGLEWMGGVIPIIDIANYAQRFKGRVTITADESTSTTYMELSSLRSEDTAVYYCASTLGLVLDAMDYWGQGTLVTVSS VL: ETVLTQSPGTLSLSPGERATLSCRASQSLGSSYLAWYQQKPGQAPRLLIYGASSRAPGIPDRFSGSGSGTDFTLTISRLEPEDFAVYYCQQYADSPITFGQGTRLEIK ?
1.7

What kd var/kd wt value was documented for this binder, P53I (antibody, V domains shown, GC1008 IgG4 variant) VH: QVQLVQSGAEVKKPGSSVKVSCKASGYTFSSNVISWVRQAPGQGLEWMGGVIIIVDIANYAQRFKGRVTITADESTSTTYMELSSLRSEDTAVYYCASTLGLVLDAMDYWGQGTLVTVSS VL: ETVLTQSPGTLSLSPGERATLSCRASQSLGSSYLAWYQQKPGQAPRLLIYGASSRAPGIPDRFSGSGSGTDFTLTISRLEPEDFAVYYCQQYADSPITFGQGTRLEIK ?
1.6
